tgt: T1, 4H48-AA
T1 chain: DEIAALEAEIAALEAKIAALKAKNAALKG
experiment summary: two-hybrid library CCmax;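 also: natural log of median RNA to DNA barcode read ratio; higher means stronger binding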
condition label: mean of both orientations
measured property: interaction score
One number for each entry.

binder	value
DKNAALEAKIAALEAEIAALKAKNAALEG [4H3343-AA]	-0.868
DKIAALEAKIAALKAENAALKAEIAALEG [4H2393-AA]	-0.193
DEIAALEAKIAALEAKNAALKAKIAALEG [4H317-AA]	0.228

Moving on to another binder below.
GET /values?readout=interaction score&item= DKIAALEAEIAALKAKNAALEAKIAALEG [4H2165-AA] -1.31

Measured values drawn from paper PMC10397247 for this set.
